# Test system: TK-10 renal
# test: NCI-60 one-dose screen, 48 h (100 = growth as untreated, 0 = no growth, -100 = all killed)
# experimental.setup: 10 µM unless noted
About 83,000 compounds went through this panel and 20% of them were active in at least one assay; those are over-represented in the sample as a whole.
value.kind: growth (%)

INSERT INTO assay_data (compound, readout_value) VALUES
  ('Cc1ccc(C2CC(c3ccc(Nc4nc(NCCO)nc(NCCO)n4)cc3)=NN2c2ccc(Cl)cc2)cc1 (centres undefined)', 82.6),
  ('COc1cc2c(cc1OCCCOc1cc3c(cc1OC)C(=O)N1CC(F)(F)C[C@H]1C=N3)N=C[C@@H]1CC(F)(F)CN1C2=O', 11.3),
  ('COc1cc(-c2csc(NC(=O)Nc3ccc(Cl)cc3)n2)cc(OC)c1OC', 26.6),
  ('COc1ccc(-c2cs/c(=N\N=C\c3ccc(O)cc3O)n2/N=C/c2ccc(O)cc2O)cc1', -31.3);

* * *

# Test system: UO-31 renal
# test: NCI-60 one-dose screen, 48 h (100 = growth as untreated, 0 = no growth, -100 = all killed)
# experimental.setup: 10 µM unless noted
About 83,000 compounds went through this panel and 20% of them were active in at least one assay; those are over-represented in the sample as a whole.
value.kind: growth (%)

INSERT INTO measurements (compound, readout_value) VALUES
  ('COC(=O)c1ccc2c(c1)NC(=O)[C@@H]1CCCN21', 88.1),
  ('Cc1nn(-c2ccc(-c3ccc(OC(F)(F)F)cc3)cc2)c2nc(-c3ccccc3)nc(N)c12', 82.4),
  ('COc1cc(C2=NN(c3ccccc3)C(c3cccc(Nc4ccnc5cc(C(F)(F)F)ccc45)c3)C2)cc(OC)c1OC (stereo not given)', 61.4),
  ('COc1ccc(Nc2cc(NC(=O)CNc3cc(OC)c(Cl)c(OC)c3Cl)ncn2)cc1', 59.6),
  ('O=C1CCC23OC(C(O)c4ccccc4N12)C1C(Br)=NOC13 (stereo not given)', 87.2),
  ('O=c1nc(-c2ccccc2)c2cc(-c3ccc(N4CCCC4)nc3)ccc2[nH]1', 63.6),
  ('COc1ccc(-n2cc(COc3ccc4c5ccnc(C)c5n(CC(C)C)c4c3)nn2)cc1', 71),
  ('COc1ccc(C(=O)c2cc(OC)c(OC)c(OC)c2)cc1OC(=O)CCl', 44.8),
  ('Nc1c(C(=O)Nc2ccccn2)sc2nc3c(cc12)CCCC3', 61.6),
  ('N#Cc1c(-c2ccc(F)cc2)nc(N=Nc2c(O)[nH]c3ccc(Cl)cc23)nc1N1CCOCC1', 6.44),
  ('COc1cc([C@H](C)c2ccc3ccccc3c2)cc(OC)c1OC', 42.1),
  ('CN(CCC#N)C(=O)Nc1ccccc1', 87.3),
  ('COc1ccc(/C=C/C(=O)/C=C(/C=C/c2ccc(OC)c(OC)c2)OB(F)F)cc1OC', 40),
  ('CC1CCCN(CCCCCOc2ccc3oc4ccc(Cl)cc4c(=O)c3c2)C1 (stereo not given)', 70.7),
  ('COC1=CC=CC2(OC)C3(O)CCCc4cccc(c43)N3C(=O)COC132 (stereo not given)', 82.1),
  ('CCOC(=O)c1c(C)nc2c(c1N)/C(=C/c1ccc[nH]1)C(=O)N2Cc1ccc(C(F)(F)F)cc1', 35.4),
  ('C/C(=N\NC(=O)c1ccncc1)c1ccc(N)cc1', 89.5),
  ('Cc1cccc(NC(=O)c2sc3nc4c(cc3c2N)CN(Cc2ccccc2)CC4)c1C', 51),
  ('N#C/C(=C/c1ccc(O)c([N+](=O)[O-])c1)c1nc(-c2ccc([N+](=O)[O-])cc2)cs1', 37.6),
  ('COc1cc(N=Nc2cc(S(=O)(=O)O)cc3cc(S(=O)(=O)O)cc(O)c23)c(C)cc1N=Nc1c(S(=O)(=O)O)cc2cc(Nc3ccccc3)ccc2c1O', 81.3);

* * *

# Tested on: COLO 205 colon
# test: NCI-60 one-dose screen, 48 h (100 = growth as untreated, 0 = no growth, -100 = all killed)
# experimental.setup: 10 µM unless noted
This is part of a sample that, as a whole, favours compounds with a hit. Of some 83,000 tested, about 20% had one in any assay.
Catalogue of molecules with associated growth
value.kind: growth (%)

INSERT INTO results (molecule, value_kind, readout_value) VALUES
  ('OCCNc1nc(NCCO)nc(Nc2ccc(C3=NN(c4cc(Cl)cc(Cl)c4)C(c4ccc(Cl)cc4)C3)cc2)n1 (centres undefined)', 'growth', 7.12),
  ('C=C1C(=O)O[C@H]2[C@H]1CC/C(COC(=O)c1cc3ccccc3o1)=C\CC[C@@]1(C)O[C@@H]21', 'growth', -65.6),
  ('CC(=O)Oc1c2c(nc3c1c1ccccc1n3Cc1ccccc1)-c1ccccc1C2', 'growth', 97.9),
  ('CCOC(=O)C1CCN(S(=O)(=O)/N=C2/NC(=O)NC2=C(Cl)Cl)CC1', 'growth', -69.6),
  ('COc1ccc(Nc2cc(NC(=O)CNc3cc(OC)c(Cl)c(OC)c3Cl)ncn2)cc1', 'growth', 89.5),
  ('COc1ccccc1C(=O)/C=C/c1cc2cccc(OC)c2[nH]c1=O', 'growth', -49.7),
  ('CCO/C=N/S(=O)(=O)c1cc2c(cc1Cl)NC=NS2(=O)=O', 'growth', 108),
  ('O=C1NCc2ccc3c(-c4cccc(Cl)c4)c[nH]c3c21', 'growth', -27),
  ('O=C(O)c1cn(C2CC2)c2cc(N3CCN(Cc4nnc(Nc5ccccc5)o4)CC3)c(F)cc2c1=O', 'growth', 104),
  ('C[C@]12CC[C@@H]3c4ccc(O)cc4CC[C@H]3[C@@H]1C[C@H](O)C2', 'growth', 128),
  ('COC(=O)CCc1cc(O)c2c(c1)[C@@H](C(=O)OC)[C@H](c1ccc(O)c(O)c1)O2', 'growth', 104),
  ('COC(=O)/C=C/c1cc(OC(C)=O)c2c(c1)C(C(=O)OC)C(c1ccc(OC(C)=O)c(OC(C)=O)c1)O2 (centres undefined)', 'growth', 38.9),
  ('Cc1ccc(-c2nc(C#N)c(S(=O)(=O)N(C)CCO)o2)cc1', 'growth', 44.3),
  ('N#Cc1c(-c2ccc(Cl)cc2)cc(-c2cc3ccccc3o2)nc1SCC(=O)c1ccc(Cl)cc1', 'growth', 106),
  ('COc1ccc(C2N(c3cc(OC)c(OC)c(OC)c3)C(=O)C2(F)F)cc1F (centres undefined)', 'growth', 16.3),
  ('COc1ccc2[nH]c(=O)c(/C=C/C(=O)/C=C/c3ccc(O)c(OC)c3)cc2c1', 'growth', 29.6),
  ('O=C(O)C(C(=O)O)c1cccc2ccccc12', 'growth', 110),
  ('COc1cc(C2=NN(c3ccccc3)C(c3cccc(Nc4ccnc5cc(C(F)(F)F)ccc45)c3)C2)cc(OC)c1OC (centres undefined)', 'growth', 86.7),
  ('Cc1ccc(C2=N[C@H]3CCC[C@@H]3N(c3ccccc3)C(C(Cl)Cl)=N2)cc1', 'growth', 98.8);

* * *

# System: TK-10 renal
# test: NCI-60 one-dose screen, 48 h (100 = growth as untreated, 0 = no growth, -100 = all killed)
# experimental.setup: 10 µM unless noted
This is part of a sample that, as a whole, favours compounds with a hit. Of some 83,000 tested, about 20% had one in any assay.
value.kind: growth (%)

INSERT INTO measurements (compound, readout_value) VALUES
  ('C1=CC2=CC=C3C=CC=C4C(c5nc6c7ccccc7c7ccccc7c6[nH]5)=CC(=C1)C2C34 (centres undefined)', 127),
  ('FC(F)(F)c1ccc2c(Nc3cccc(C4CC(c5ccccc5)=NN4c4ccc(Cl)cc4)c3)ccnc2c1 (centres undefined)', 82.3),
  ('CNC(=O)c1cc(Oc2ccc3c(c2)sc2nc(-c4ccc(NC(C)=O)cc4)cn23)ccn1', 61.4),
  ('COc1ccc(-n2cc(COc3ccc4c5ccnc(C)c5n(CC(C)C)c4c3)nn2)cc1', 70.5),
  ('Nc1c(C(=O)Nc2ccccc2)sc2nc3c(cc12)CN(C(=O)OCc1ccccc1)CC3', 98.8),
  ('CCCCCOC(=O)c1ccccc1O', 99.5),
  ('c1ccc2c3c([nH]c2c1)C(c1ccc(C2NCCc4c2[nH]c2ccccc42)cc1)NCC3 (centres undefined)', 63.4),
  ('CCCCCCCCCCCCCC1=NCC[N+]1(CCO)Cc1ccccc1 (centres undefined)', -85.4),
  ('CCCCCCC/C=C/[C@H]1O[C@]23C(=O)C[C@@]4(C[C@@H](OC5OC(CO)C(O)C(O)C5O)C[C@@H]4[C@H]2C=C1C)OC3=O (some centres undefined)', 35.8);
